src = patent US20250243180A1

Target: NEK7 (Homo sapiens (Human), UniProt Q8TDX7+Q96SW2)
Sequence (Q8TDX7 whole entry): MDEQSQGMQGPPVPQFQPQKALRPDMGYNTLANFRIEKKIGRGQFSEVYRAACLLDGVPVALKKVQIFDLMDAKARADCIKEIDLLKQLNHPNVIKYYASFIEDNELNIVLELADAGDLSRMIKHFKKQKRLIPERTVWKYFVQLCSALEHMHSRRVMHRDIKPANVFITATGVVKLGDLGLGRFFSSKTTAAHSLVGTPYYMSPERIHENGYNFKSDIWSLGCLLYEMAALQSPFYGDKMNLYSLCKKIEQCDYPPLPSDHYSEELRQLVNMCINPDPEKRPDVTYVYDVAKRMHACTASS
Sequence (Q96SW2 whole entry): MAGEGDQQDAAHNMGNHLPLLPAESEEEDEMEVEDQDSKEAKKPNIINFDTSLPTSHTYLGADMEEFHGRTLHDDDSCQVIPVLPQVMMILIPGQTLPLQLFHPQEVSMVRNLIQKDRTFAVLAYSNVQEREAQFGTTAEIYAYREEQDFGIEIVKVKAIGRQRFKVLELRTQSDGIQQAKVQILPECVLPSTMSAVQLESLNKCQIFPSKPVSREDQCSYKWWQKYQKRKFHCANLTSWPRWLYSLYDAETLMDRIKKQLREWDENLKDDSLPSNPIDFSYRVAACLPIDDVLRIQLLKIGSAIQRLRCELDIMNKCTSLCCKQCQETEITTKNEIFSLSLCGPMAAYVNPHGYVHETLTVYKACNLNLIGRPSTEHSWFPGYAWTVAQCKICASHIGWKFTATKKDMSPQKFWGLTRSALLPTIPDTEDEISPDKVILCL
Sequence (Q16531 2-1140 partner): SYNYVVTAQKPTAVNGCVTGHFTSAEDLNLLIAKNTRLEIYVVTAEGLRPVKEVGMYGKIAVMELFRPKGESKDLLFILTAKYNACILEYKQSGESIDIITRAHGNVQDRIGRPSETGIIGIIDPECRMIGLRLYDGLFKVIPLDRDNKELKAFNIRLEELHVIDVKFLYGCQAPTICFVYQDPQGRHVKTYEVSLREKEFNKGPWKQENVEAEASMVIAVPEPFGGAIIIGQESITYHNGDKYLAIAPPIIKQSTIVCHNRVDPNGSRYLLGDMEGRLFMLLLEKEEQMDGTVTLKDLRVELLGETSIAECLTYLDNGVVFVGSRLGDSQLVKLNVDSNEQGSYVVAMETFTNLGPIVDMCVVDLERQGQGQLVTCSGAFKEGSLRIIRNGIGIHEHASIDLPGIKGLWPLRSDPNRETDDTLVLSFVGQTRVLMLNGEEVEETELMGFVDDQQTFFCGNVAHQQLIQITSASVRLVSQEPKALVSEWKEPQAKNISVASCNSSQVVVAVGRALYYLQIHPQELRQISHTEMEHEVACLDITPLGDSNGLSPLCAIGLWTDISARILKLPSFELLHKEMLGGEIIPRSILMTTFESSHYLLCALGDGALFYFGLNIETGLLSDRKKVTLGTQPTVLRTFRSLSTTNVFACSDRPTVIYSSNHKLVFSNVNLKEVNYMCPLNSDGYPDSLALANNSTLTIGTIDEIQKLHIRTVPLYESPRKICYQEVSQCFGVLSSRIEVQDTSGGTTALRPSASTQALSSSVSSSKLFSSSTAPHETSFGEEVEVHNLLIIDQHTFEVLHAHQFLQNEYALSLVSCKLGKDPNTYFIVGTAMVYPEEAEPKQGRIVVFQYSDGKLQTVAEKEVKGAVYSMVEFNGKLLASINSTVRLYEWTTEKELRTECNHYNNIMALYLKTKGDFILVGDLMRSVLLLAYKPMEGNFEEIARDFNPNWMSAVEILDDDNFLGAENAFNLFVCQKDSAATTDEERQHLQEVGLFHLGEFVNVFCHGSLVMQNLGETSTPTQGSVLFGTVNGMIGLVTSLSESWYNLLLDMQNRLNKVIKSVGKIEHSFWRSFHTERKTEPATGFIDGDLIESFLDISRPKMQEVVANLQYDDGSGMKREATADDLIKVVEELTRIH
Test: NEK7 NanoBiT degradation assay in Cal51 NEK7 NanoBiT cell line
Format: cell-based
Details: CAL-51; NEK7 degradation, Cal51 NEK7 NanoBiT cells, 24 hours; read-out: NanoBiT Dmax
Assign Dmax to each entry below.

Please state, for each entry, its recorded Dmax.
1. Cc1ccc(C(C)(C)C(=O)NCc2cc(Cl)c(C3CCC(=O)NC3=O)c(Cl)c2)nc1 (stereo not shown)
2. Cc1noc(C)c1C(C)(C)C(=O)NCc1cc(Cl)c(C2CCC(=O)NC2=O)c(Cl)c1 (stereo not shown)
3. CC(C)(C(=O)NCc1cc(F)c(C2CCC(=O)NC2=O)c(Cl)c1)c1nocc1C(F)(F)F (stereo not shown)
4. Cc1ncc(C(C)(C)C(=O)NCc2cc(Cl)c(C3CCC(=O)NC3=O)c(Cl)c2)o1 (stereo not shown)
5. Cc1cnc(C(C)(C)C(=O)NCc2cc(Cl)c([C@]3(F)CCC(=O)NC3=O)c(Cl)c2)nc1 (single isomer, unassigned)

> 75%
≤ 50%
50 to 75%
> 75%
≤ 50%

// batch mode: one Dmax value per listed entry
1. Cn1ncc2ccc(C(C)(C)C(=O)NCc3cc(Cl)c(C4CCC(=O)NC4=O)c(Cl)c3)cc21 (stereo not shown)
2. CC(C)(C(=O)NCc1cc(Cl)c(C2CCC(=O)NC2=O)c(Cl)c1)c1cnc(C#N)nc1 (stereo not shown)

> 75%
50 to 75%
